Listing of recorded AUC(0-t) by entry.
assay: clinical; conditions: both, human, in vivo, po, 10 mg
Outcome measure: AUC(0-t)

>>> recorded_measurement("Cc1cc(CO)nc(N2CC3CN(C(=O)c4c(F)cccc4-n4nccn4)CC3C2)n1 (centres unmarked)")
"1280 ng·h/mL"
>>> recorded_measurement("Cc1nc(N2CC3CN(C(=O)c4c(F)cccc4-n4nccn4)CC3C2)nc(C)c1O (centres unmarked)")
"315 ng·h/mL"

----------
assay: clinical; settings: both, human, in vivo, 20 mg, Cmax, geometric mean, Cohort 1 (Reference) normal hepatic function; unbound
Listing of recorded Cmax by entry.
Outcome measure: Cmax (ng/mL)

>>> recorded_measurement("Cc1nc(N2CC3CN(C(=O)c4c(F)cccc4-n4nccn4)CC3C2)nc(C)c1O (centres unmarked) [M16]")
2.41
>>> recorded_measurement("Cc1cc(CO)nc(N2CC3CN(C(=O)c4c(F)cccc4-n4nccn4)CC3C2)n1 (centres unmarked) [M12]")
16.3

----------
assay: clinical; settings: both, human, in vivo, 20 mg, AUClast, geometric mean, Cohort 1 (Reference) normal hepatic function; unbound
Outcome measure: AUC(0-t) (ng·h/mL)

>>> recorded_measurement("Cc1cc(CO)nc(N2CC3CN(C(=O)c4c(F)cccc4-n4nccn4)CC3C2)n1 (centres unmarked) [M12]")
118
>>> recorded_measurement("Cc1nc(N2CC3CN(C(=O)c4c(F)cccc4-n4nccn4)CC3C2)nc(C)c1O (centres unmarked) [M16]")
29

----------
experiment: clinical; details: both, human, in vivo, 10 mg, AUClast, geometric mean, Cohort 3 (Test) moderate hepatic impairment; 10 mg dose normalized to 20 mg; total
Listing of recorded AUC(0-t) by entry.
Outcome measure: AUC(0-t) (ng·h/mL)

>>> recorded_measurement("Cc1cc(CO)nc(N2CC3CN(C(=O)c4c(F)cccc4-n4nccn4)CC3C2)n1 (centres unmarked)")
2380
>>> recorded_measurement("Cc1nc(N2CC3CN(C(=O)c4c(F)cccc4-n4nccn4)CC3C2)nc(C)c1O (centres unmarked)")
620

----------
experiment: clinical; conditions: both, human, in vivo, 20 mg, Cmax, geometric mean, Cohort 1 (Reference) normal hepatic function; total
Listing of recorded Cmax by entry.
Outcome measure: Cmax (ng/mL)

>>> recorded_measurement("Cc1cc(CO)nc(N2CC3CN(C(=O)c4c(F)cccc4-n4nccn4)CC3C2)n1 (centres unmarked)")
320
>>> recorded_measurement("Cc1nc(N2CC3CN(C(=O)c4c(F)cccc4-n4nccn4)CC3C2)nc(C)c1O (centres unmarked)")
64.6

----------
Listing of recorded Tmax by entry.
test: clinical; details: both, human, in vivo, po, 10 mg
Outcome measure: Tmax (h)

>>> recorded_measurement("Cc1nc(N2CC3CN(C(=O)c4c(F)cccc4-n4nccn4)CC3C2)nc(C)c1O (centres unmarked)")
2.5
>>> recorded_measurement("Cc1cc(CO)nc(N2CC3CN(C(=O)c4c(F)cccc4-n4nccn4)CC3C2)n1 (centres unmarked)")
2.25

----------
experiment: clinical; conditions: both, human, in vivo, po, 20 mg
Listing of recorded Cmax by entry.
Outcome measure: Cmax

>>> recorded_measurement("Cc1cc(CO)nc(N2CC3CN(C(=O)c4c(F)cccc4-n4nccn4)CC3C2)n1 (centres unmarked)")
"368 ng/mL"
>>> recorded_measurement("Cc1nc(N2CC3CN(C(=O)c4c(F)cccc4-n4nccn4)CC3C2)nc(C)c1O (centres unmarked)")
"51.5 ng/mL"

----------
assay: clinical; conditions: both, human, in vivo, 10 mg, AUC∞, geometric mean, Cohort 3 (Test) moderate hepatic impairment; 10 mg dose normalized to 20 mg; unbound
Listing of recorded AUC(0-inf) by entry.
Outcome measure: AUC(0-inf) (ng·h/mL)

>>> recorded_measurement("Cc1cc(CO)nc(N2CC3CN(C(=O)c4c(F)cccc4-n4nccn4)CC3C2)n1 (centres unmarked)")
262
>>> recorded_measurement("Cc1nc(N2CC3CN(C(=O)c4c(F)cccc4-n4nccn4)CC3C2)nc(C)c1O (centres unmarked)")
57.6

----------
Listing of recorded AUC(0-t) by entry.
experiment: clinical; conditions: both, human, in vivo, 20 mg, AUClast, geometric mean, Cohort 1 (Reference) normal hepatic function; total
Outcome measure: AUC(0-t) (ng·h/mL)

>>> recorded_measurement("Cc1cc(CO)nc(N2CC3CN(C(=O)c4c(F)cccc4-n4nccn4)CC3C2)n1 (centres unmarked)")
2310
>>> recorded_measurement("Cc1nc(N2CC3CN(C(=O)c4c(F)cccc4-n4nccn4)CC3C2)nc(C)c1O (centres unmarked)")
778
